Measurement context: in decalin, 294.15 K
Experimental readout: solubility (mole fraction)
The answer should be written as a number, with no unit following it.

Data point: c1ccc2c(c1)sc1ccccc12 ; solubility (mole fraction) = 0.0408

###

Measurement context: in DMF, 306.55 K
Experimental readout: solubility (mole fraction)
The answer should be written as a number, with no unit following it.

Data point: c1ccc2c(c1)sc1ccccc12 ; solubility (mole fraction) = 0.184

###

Measurement context: in diethylene glycol, 334.15 K
Experimental readout: solubility (mole fraction)

Data point: c1ccc2c(c1)sc1ccccc12 ; solubility (mole fraction) = 0.0203

###

Measurement context: in sulfolane, 299.45 K
Experimental readout: solubility (mole fraction)
The answer should be written as a number, with no unit following it.

Data point: c1ccc2c(c1)sc1ccccc12 ; solubility (mole fraction) = 0.0563

###

Measurement context: in sulfolane, 334.75 K
Experimental readout: solubility (mole fraction)
The answer should be written as a number, with no unit following it.

Data point: c1ccc2c(c1)sc1ccccc12 ; solubility (mole fraction) = 0.242

###

Measurement context: in acetone, 341.15 K
Experimental readout: solubility (mole fraction)
The answer should be written as a number, with no unit following it.

Data point: c1ccc2c(c1)sc1ccccc12 ; solubility (mole fraction) = 0.372

###

Measurement context: in DMSO, 292.95 K
Experimental readout: solubility (mole fraction)

Data point: c1ccc2c(c1)sc1ccccc12 ; solubility (mole fraction) = 0.0567

###

Measurement context: in diethylene glycol, 326.85 K
Experimental readout: solubility (mole fraction)
The answer should be written as a number, with no unit following it.

Data point: c1ccc2c(c1)sc1ccccc12 ; solubility (mole fraction) = 0.00443

###

Measurement context: in diethylene glycol, 317.65 K
Experimental readout: solubility (mole fraction)
The answer should be written as a number, with no unit following it.

Data point: c1ccc2c(c1)sc1ccccc12 ; solubility (mole fraction) = 0.00163

###

Measurement context: in DMSO, 333.25 K
Experimental readout: solubility (mole fraction)
The answer should be written as a number, with no unit following it.

Data point: c1ccc2c(c1)sc1ccccc12 ; solubility (mole fraction) = 0.264

###

Measurement context: in diethylene glycol, 287.85 K
Experimental readout: solubility (mole fraction)
The answer should be written as a number, with no unit following it.

Data point: c1ccc2c(c1)sc1ccccc12 ; solubility (mole fraction) = 0.00027

###

Measurement context: in 2-(2-butoxyethoxy)ethanol, 316.05 K
Experimental readout: solubility (mole fraction)
The answer should be written as a number, with no unit following it.

Data point: c1ccc2c(c1)sc1ccccc12 ; solubility (mole fraction) = 0.167

###

Measurement context: in acetone, 321.65 K
Experimental readout: solubility (mole fraction)
The answer should be written as a number, with no unit following it.

Data point: c1ccc2c(c1)sc1ccccc12 ; solubility (mole fraction) = 0.179

###

Measurement context: in DMSO, 325.45 K
Experimental readout: solubility (mole fraction)
The answer should be written as a number, with no unit following it.

Data point: c1ccc2c(c1)sc1ccccc12 ; solubility (mole fraction) = 0.201

###

Measurement context: in acetone, 301.15 K
Experimental readout: solubility (mole fraction)
The answer should be written as a number, with no unit following it.

Data point: c1ccc2c(c1)sc1ccccc12 ; solubility (mole fraction) = 0.0792

###

Measurement context: in 2-(2-butoxyethoxy)ethanol, 324.35 K
Experimental readout: solubility (mole fraction)
The answer should be written as a number, with no unit following it.

Data point: c1ccc2c(c1)sc1ccccc12 ; solubility (mole fraction) = 0.217

###

Measurement context: in n-octane, 318.15 K
Experimental readout: solubility (mole fraction)
The answer should be written as a number, with no unit following it.

Data point: c1ccc2c(c1)sc1ccccc12 ; solubility (mole fraction) = 0.062

###

Measurement context: in sulfolane, 313.35 K
Experimental readout: solubility (mole fraction)

Data point: c1ccc2c(c1)sc1ccccc12 ; solubility (mole fraction) = 0.109

###

Measurement context: in ethanol, 313.95 K
Experimental readout: solubility (mole fraction)
The answer should be written as a number, with no unit following it.

Data point: c1ccc2c(c1)sc1ccccc12 ; solubility (mole fraction) = 0.0121

###

Measurement context: in 2-(2-butoxyethoxy)ethanol, 291.65 K
Experimental readout: solubility (mole fraction)

Data point: c1ccc2c(c1)sc1ccccc12 ; solubility (mole fraction) = 0.0873

###

Measurement context: in decalin, 304.15 K
Experimental readout: solubility (mole fraction)
The answer should be written as a number, with no unit following it.

Data point: c1ccc2c(c1)sc1ccccc12 ; solubility (mole fraction) = 0.0516

###

Measurement context: in n-octane, 314.15 K
Experimental readout: solubility (mole fraction)
The answer should be written as a number, with no unit following it.

Data point: c1ccc2c(c1)sc1ccccc12 ; solubility (mole fraction) = 0.0521

###

Measurement context: in DMSO, 296.45 K
Experimental readout: solubility (mole fraction)
The answer should be written as a number, with no unit following it.

Data point: c1ccc2c(c1)sc1ccccc12 ; solubility (mole fraction) = 0.0668

###

Measurement context: in DMF, 298.65 K
Experimental readout: solubility (mole fraction)

Data point: c1ccc2c(c1)sc1ccccc12 ; solubility (mole fraction) = 0.147

###

Measurement context: in acetonitrile, 309.25 K
Experimental readout: solubility (mole fraction)

Data point: c1ccc2c(c1)sc1ccccc12 ; solubility (mole fraction) = 0.0244

###

Measurement context: in n-octane, 337.15 K
Experimental readout: solubility (mole fraction)
The answer should be written as a number, with no unit following it.

Data point: c1ccc2c(c1)sc1ccccc12 ; solubility (mole fraction) = 0.0995

###

Measurement context: in acetonitrile, 293.25 K
Experimental readout: solubility (mole fraction)
The answer should be written as a number, with no unit following it.

Data point: c1ccc2c(c1)sc1ccccc12 ; solubility (mole fraction) = 0.0121

###

Measurement context: in 2-(2-butoxyethoxy)ethanol, 304.35 K
Experimental readout: solubility (mole fraction)
The answer should be written as a number, with no unit following it.

Data point: c1ccc2c(c1)sc1ccccc12 ; solubility (mole fraction) = 0.123

###

Measurement context: in DMF, 318.35 K
Experimental readout: solubility (mole fraction)

Data point: c1ccc2c(c1)sc1ccccc12 ; solubility (mole fraction) = 0.257

###

Measurement context: in n-octane, 325.15 K
Experimental readout: solubility (mole fraction)

Data point: c1ccc2c(c1)sc1ccccc12 ; solubility (mole fraction) = 0.0767

###

Measurement context: in DMF, 302.65 K
Experimental readout: solubility (mole fraction)
The answer should be written as a number, with no unit following it.

Data point: c1ccc2c(c1)sc1ccccc12 ; solubility (mole fraction) = 0.165

###

Measurement context: in decalin, 308.15 K
Experimental readout: solubility (mole fraction)
The answer should be written as a number, with no unit following it.

Data point: c1ccc2c(c1)sc1ccccc12 ; solubility (mole fraction) = 0.0571

###

Measurement context: in sulfolane, 309.15 K
Experimental readout: solubility (mole fraction)
The answer should be written as a number, with no unit following it.

Data point: c1ccc2c(c1)sc1ccccc12 ; solubility (mole fraction) = 0.0923

###

Measurement context: in n-propanol, 314.65 K
Experimental readout: solubility (mole fraction)
The answer should be written as a number, with no unit following it.

Data point: c1ccc2c(c1)sc1ccccc12 ; solubility (mole fraction) = 0.0183

###

Measurement context: in diethylene glycol, 332.35 K
Experimental readout: solubility (mole fraction)
The answer should be written as a number, with no unit following it.

Data point: c1ccc2c(c1)sc1ccccc12 ; solubility (mole fraction) = 0.0143

###

Measurement context: in diethylene glycol, 314.15 K
Experimental readout: solubility (mole fraction)

Data point: c1ccc2c(c1)sc1ccccc12 ; solubility (mole fraction) = 0.00119

###

Measurement context: in n-octane, 297.15 K
Experimental readout: solubility (mole fraction)
The answer should be written as a number, with no unit following it.

Data point: c1ccc2c(c1)sc1ccccc12 ; solubility (mole fraction) = 0.0277

###

Measurement context: in diethylene glycol, 299.95 K
Experimental readout: solubility (mole fraction)

Data point: c1ccc2c(c1)sc1ccccc12 ; solubility (mole fraction) = 0.00062

###

Measurement context: in n-propanol, 303.85 K
Experimental readout: solubility (mole fraction)

Data point: c1ccc2c(c1)sc1ccccc12 ; solubility (mole fraction) = 0.0118

###

Measurement context: in ethanol, 318.95 K
Experimental readout: solubility (mole fraction)
The answer should be written as a number, with no unit following it.

Data point: c1ccc2c(c1)sc1ccccc12 ; solubility (mole fraction) = 0.0141

###

Measurement context: in DMSO, 301.25 K
Experimental readout: solubility (mole fraction)
The answer should be written as a number, with no unit following it.

Data point: c1ccc2c(c1)sc1ccccc12 ; solubility (mole fraction) = 0.0791
